All values here come from paper PMC10397247.

Target: T1, O16-bP
T1 chain: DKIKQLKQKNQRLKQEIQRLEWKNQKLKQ
Experiment: two-hybrid library CCNG1;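 further: natural log of median RNA to DNA barcode read ratio; higher means stronger binding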
Task for the reader: assign each of the following binders its reported interaction score.

Need interaction score of DEIKQLEQENQRLEQKIQRLKWENQKLEQ [O15-bP] , thanks.
1.51

Need interaction score of DENKQLEQEIQRLEQENQRLEWKIQKLKQ [O14-bP] , thanks.
1.73

Need interaction score of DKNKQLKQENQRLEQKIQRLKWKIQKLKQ [O10-bP] , thanks.
-0.76

Need interaction score of DKNKQLKQENQRLEQEIQRLEWEIQKLEQ [O1-bP] , thanks.
-0.714

Need interaction score of DKIKQLKQEIQRLEQENQRLEWENQKLEQ [O11-bP] , thanks.
-1.05

Need interaction score of DEIKQLEQKIQRLKQKNQRLKWKNQKLKQ [O12-bP] , thanks.
-0.648

Need interaction score of DKNKQLKQKIQRLKQKNQRLKWEIQKLEQ [O13-bP] , thanks.
-1.17

Need interaction score of DKIKQLKQKNQRLKQEIQRLEWKNQKLKQ [O16-bP] , thanks.
-0.576
